We begin with a simple list: items and their reported TGI.
system: EKVX NSCLC; test: NCI tumour cell line growth inhibition, 48 h

Some compounds with recorded TGI:
>>> result("CCC(=O)c1cc([N+](=O)[O-])c(Br)s1")
"34.8 µM"
>>> result("Fc1cc(-c2nnc3n2N=C(c2ccc(Cl)cc2Cl)CS3)c(Cl)cc1Cl")
"> 100 µM"
>>> result("COc1ccc(/C=C/C(=O)C(C)(C)Br)cc1")
"31.7 µM"

GET TGI where system = EKVX NSCLC and item = COc1ccc(C=Nc2ccc(-c3nc4ccccc4[nH]3)cc2)cc1OC
> 100 µM

GET TGI where system = EKVX NSCLC and item = O=C(Nc1cc(S(=O)(=O)c2ccc(Cl)cc2)ccc1Cl)c1cc(I)cc(I)c1O
44.5 µM

GET TGI where system = EKVX NSCLC and item = CCCCCCOP(=O)(OCCCCCC)OC(C(=O)OC)C(F)(F)F (centres undefined)
> 100 µM
